Reference source: paper PMC12311729

# Protocol Description: Cyclic voltammetry (redox potentials on a GCE)
# Type: physicochemical
# Condition Info: percentage of the value for L-DOPA
Catalogue of E1/2 (mV) at pH 7.4 relative to L-DOPA x 100 readings, one per entry.
Number first, unit second: that is the form wanted.

// solved cases for E1/2 (mV) at pH 7.4 relative to L-DOPA x 100 follow
O=C(O)CCc1ccc(O)c(O)c1 [DHHCA (3), 3,4-dihydroxyhydrocinnamic acid] ... 59%
O=C(O)CCc1cc(O)c(O)cc1Br [6-BromoDHHCA (4)] ... 63%
NCCc1cc(O)c(O)cc1Br [Compound 6-bromoDA, 6-bromodopamine, reference compound] ... 77%

Please examine the following record next.
Given item N#Cc1cc(O)c(O)cc1CCC(=O)O [6-CyanoDHHCA (5)] , the value recorded as its E1/2 (mV) at pH 7.4 relative to L-DOPA x 100 is 104%
